Target: Nuclear factor NF-kappa-B complex (Homo sapiens) (UniProt Q00653+P19838+Q04206)
Sequence (P19838 whole entry, looked up): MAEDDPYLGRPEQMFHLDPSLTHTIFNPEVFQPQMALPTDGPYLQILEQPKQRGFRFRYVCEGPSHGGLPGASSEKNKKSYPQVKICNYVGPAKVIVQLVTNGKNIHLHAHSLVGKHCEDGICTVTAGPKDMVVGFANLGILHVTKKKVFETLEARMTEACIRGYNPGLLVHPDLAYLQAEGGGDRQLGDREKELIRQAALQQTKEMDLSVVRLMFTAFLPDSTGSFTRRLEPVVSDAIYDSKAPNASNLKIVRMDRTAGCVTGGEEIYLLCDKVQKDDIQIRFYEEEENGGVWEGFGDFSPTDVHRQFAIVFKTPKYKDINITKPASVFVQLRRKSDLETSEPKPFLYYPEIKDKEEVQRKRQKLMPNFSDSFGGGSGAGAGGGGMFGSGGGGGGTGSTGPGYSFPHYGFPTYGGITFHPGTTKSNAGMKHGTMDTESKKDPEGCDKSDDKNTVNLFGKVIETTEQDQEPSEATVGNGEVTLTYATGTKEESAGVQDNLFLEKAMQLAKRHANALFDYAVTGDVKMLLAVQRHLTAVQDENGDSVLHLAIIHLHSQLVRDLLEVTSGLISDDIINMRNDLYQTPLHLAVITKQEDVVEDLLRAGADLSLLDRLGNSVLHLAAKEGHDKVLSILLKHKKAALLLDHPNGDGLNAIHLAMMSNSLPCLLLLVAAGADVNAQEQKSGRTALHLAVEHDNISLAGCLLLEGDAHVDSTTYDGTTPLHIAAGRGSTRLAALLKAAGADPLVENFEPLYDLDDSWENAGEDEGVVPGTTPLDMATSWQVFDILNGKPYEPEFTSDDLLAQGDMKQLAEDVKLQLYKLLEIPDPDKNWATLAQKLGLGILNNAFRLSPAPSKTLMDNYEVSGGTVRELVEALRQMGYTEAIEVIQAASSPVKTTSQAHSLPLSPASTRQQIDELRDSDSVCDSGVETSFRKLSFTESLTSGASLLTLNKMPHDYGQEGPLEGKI
Sequence (Q00653 whole entry, looked up): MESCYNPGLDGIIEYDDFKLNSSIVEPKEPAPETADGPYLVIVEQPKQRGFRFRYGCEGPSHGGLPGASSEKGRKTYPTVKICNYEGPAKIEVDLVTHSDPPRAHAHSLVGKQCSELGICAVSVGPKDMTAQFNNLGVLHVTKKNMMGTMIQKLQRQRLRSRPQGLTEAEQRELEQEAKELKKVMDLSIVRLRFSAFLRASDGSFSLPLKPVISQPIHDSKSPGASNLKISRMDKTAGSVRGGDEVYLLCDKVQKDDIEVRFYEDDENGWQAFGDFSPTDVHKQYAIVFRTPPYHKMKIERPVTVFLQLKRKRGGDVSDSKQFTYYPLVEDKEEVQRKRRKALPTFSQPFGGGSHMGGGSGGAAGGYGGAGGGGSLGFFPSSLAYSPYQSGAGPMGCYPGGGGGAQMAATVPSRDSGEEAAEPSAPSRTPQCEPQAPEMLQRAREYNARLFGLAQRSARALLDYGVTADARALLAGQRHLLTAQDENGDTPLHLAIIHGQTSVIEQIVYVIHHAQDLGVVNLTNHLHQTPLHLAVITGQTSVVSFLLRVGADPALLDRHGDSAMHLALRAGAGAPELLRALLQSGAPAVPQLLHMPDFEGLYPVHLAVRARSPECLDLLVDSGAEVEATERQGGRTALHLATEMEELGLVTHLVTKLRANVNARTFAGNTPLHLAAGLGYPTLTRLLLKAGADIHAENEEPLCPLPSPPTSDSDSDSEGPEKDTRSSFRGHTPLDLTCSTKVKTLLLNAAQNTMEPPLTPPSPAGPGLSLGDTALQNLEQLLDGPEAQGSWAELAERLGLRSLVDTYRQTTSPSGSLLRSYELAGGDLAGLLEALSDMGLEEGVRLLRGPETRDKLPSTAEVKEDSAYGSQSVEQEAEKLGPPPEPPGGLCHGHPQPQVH
Sequence (Q04206 whole entry, looked up): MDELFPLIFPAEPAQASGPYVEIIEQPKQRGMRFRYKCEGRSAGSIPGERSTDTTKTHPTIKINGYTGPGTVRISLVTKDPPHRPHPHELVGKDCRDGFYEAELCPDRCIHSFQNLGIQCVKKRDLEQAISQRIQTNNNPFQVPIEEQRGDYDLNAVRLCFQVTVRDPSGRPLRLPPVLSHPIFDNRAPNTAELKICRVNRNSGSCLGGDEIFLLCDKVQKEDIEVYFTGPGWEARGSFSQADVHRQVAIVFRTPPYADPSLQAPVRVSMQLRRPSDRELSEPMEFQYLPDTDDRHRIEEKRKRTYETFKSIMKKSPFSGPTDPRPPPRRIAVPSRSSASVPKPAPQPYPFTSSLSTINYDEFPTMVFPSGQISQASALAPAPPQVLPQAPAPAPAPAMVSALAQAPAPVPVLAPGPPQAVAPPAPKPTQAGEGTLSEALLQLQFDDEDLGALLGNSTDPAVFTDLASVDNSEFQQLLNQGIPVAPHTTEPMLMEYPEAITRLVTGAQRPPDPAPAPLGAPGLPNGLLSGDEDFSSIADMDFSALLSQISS
Assay: Inhibition of NF-kappaB (unknown origin) transcriptional activity in LPS-induced mouse RAW264.7 cells at 30 uM after 1 hr by secreted alkaline phosphatase assay relative to control
Format: cell-based
recorded-metric: inhibition (%)

Solved entries:
| compound | value-units | inhibition |
| --- | --- | --- |
| O=C(Nc1cc(C(F)(F)F)ccc1C(F)(F)F)C1Cc2ccccc2O1 (centres undefined) | % | 34 |
| COc1ccccc1NC(=O)C1Cc2ccccc2O1 (centres undefined) | % | 29 |
| Cc1ccc(C)c(NC(=O)c2cc3ccccc3o2)c1 | % | 58 |
| COc1ccc(NC(=O)C2Cc3ccccc3O2)cc1OC (centres undefined) | % | 21.5 |
| O=C(Nc1ccc(C(F)(F)F)cc1)C1Cc2ccccc2O1 (centres undefined) | % | 41 |
| COc1ccccc1NC(=O)c1cc2ccccc2o1 | % | 41 |
| O=C(Nc1ccccc1)c1cc2ccccc2o1 | % | 44 |

[1] O=C(Nc1cccc(O)c1)c1cc2ccccc2o1
[2] Cc1ccc(C)c(NC(=O)C2Cc3ccccc3O2)c1 (centres undefined)
Ask | Could you check which of 1 and 2 has a smaller value for inhibition? Let me know the label of the one you choose.
Reply | 2

----------
Biological target: Nuclear factor NF-kappa-B complex (Homo sapiens) (UniProt Q00653+P19838+Q04206)
Assay: Inhibition of NF-kappaB (unknown origin) transcriptional activity in LPS-induced mouse RAW264.7 cells at 30 uM after 1 hr by secreted alkaline phosphatase assay relative to control
Type: cell-based
recorded-metric: inhibition (%)

| compound | inhibition [%] |
| --- | --- |
| COc1ccc(OC)c(NC(=O)C2Cc3ccccc3O2)c1 (stereo not drawn) | 39.5 |

[a] Cc1cccc(NC(=O)C2Cc3ccccc3O2)c1 (stereo not drawn)
[b] O=C(Nc1ccc(Cl)cc1)C1Cc2ccccc2O1 (stereo not drawn)
Ask | Could you check which of a and b has a smaller value for inhibition? Let me know the label of the one you choose.
Reply | a
(a: 25%, b: 41.5%)
